EC50 for assorted molecules
test system: HCMV; experiment: Ex vivo HCMV infection of human decidual (placental) tissue organ cultures, viral mRNA copy number; assay type: cell-based, human cytomegalovirus; details: Human betaherpesvirus 5; ex vivo, Fa 0.5, drug alone; read-out: Dose of drug alone at Fa 0.5
quantity: EC50 (nM)

[
  {
    "molecule": "CC1CCC2[C@@H](C)[C@H](N3CCS(=O)(=O)CC3)OC3O[C@]4(C)CCC1C32OO4 (stereo in doubt)",
    "system.tested": "HCMV",
    "value.observed": 425
  },
  {
    "molecule": "CC(C)Nc1nc2cc(Cl)c(Cl)cc2n1[C@H]1O[C@@H](CO)[C@H](O)[C@@H]1O",
    "system.tested": "HCMV",
    "value.observed": 186
  }
]
